# Lookup of reported TGI keyed by entry
Test system: HCT-116 colon
ASSAY_PROCEDURE: NCI tumour cell line growth inhibition, 48 h
Record the value in µM, omitting the unit from your answer.

Some solved cases for reference:
# COMPOUND, TGI [µM]
data = [
    ("CCOC(=O)C1=C(C)N(NC(=O)Nc2ccccc2)C2(N)N(NC(=O)Nc3ccccc3)C(C)=C(C(=O)OCC)C12C(=O)OCC (stereo unspecified)", 80.2),
    ("COCCn1cc(-c2nc(-c3cc4cccnc4[nH]3)cs2)c2cc(OC)ccc21", 16),
    ("COc1cc2c(cc1O)[C@H](C)C(c1ccc(OC)c(OC)c1)O2 (stereo partly specified)", 15.1),
    ("COc1c(CC(C)=O)ccc2c1C(=O)c1ccc(C=O)c(OC(C)=O)c1C2=O", 24.9),
    ("COC(=O)[C@]1(C)CCC[C@@]2(C)C1CC[C@@]13C=C(C(C)C)[C@@H](CC1=O)CC23 (stereo partly specified)", 42),
]

# input for lookup
Input line: State its TGI for this compound: `C=C1c2nc3ccccc3n2C=C(c2ccc(OC)cc2)N1c1ccc(OC)cc1`
Output line: 74.4
